These data points were gathered from patent US20220324835A1.

- System: T-cell
- assayName: IL-2 secretion from T-cells stimulated with anti-CD3 antibody alone (Biological Example 2)
- Type: cell-based, human
- conditionNotes: Homo sapiens, T-cell; 1 μM Cbl-b inhibitor; fold change over baseline (anti-CD3/anti-CD28 stimulated T-cells without inhibitor); read-out: IL-2 secretion Anti-CD3 stimulation
- From the text: Methods for experimentally determining increased T-cell activation, increased T-cell proliferation, decreased T-cell exhaustion, and/or decreased T-cell tolerance are well known in the art. Modulation of activity of an immune cell, such as a T-cell, a B cell or a NK cell can be measured by determining a baseline value for a parameter of interest (e.g., cytokine secretion). […] A positive response for immune cell activation can then be determined by the obtained reference value. […]
readoutType: fold induction at 1 µM

[[record]]
compound = "CN1CCN(c2cc3c(c(C(F)(F)F)c2)CN(c2cccc(C4(Cc5nncn5C)COC4)c2)C3=O)CC12CC2"
readouttype = "fold induction at 1 µM"
result = "0.151 to 0.2"

[[record]]
compound = "Cn1cnnc1C(F)(F)C1(c2cccc(N3Cc4c(cc(CN5CC(F)C5)cc4C(F)(F)F)C3=O)c2)COC1"
readouttype = "fold induction at 1 µM"
result = "0.101 to 0.15"

[[record]]
compound = "Cn1cnnc1[C@@H](F)C1(c2cccc(N3Cc4c(cc(CN5CCC6(CC6)C5)cc4C(F)(F)F)C3=O)c2)COC1"
readouttype = "fold induction at 1 µM"
result = "0.101 to 0.15"

[[record]]
compound = "C[C@H](Cc1nncn1C)c1cc(N[C@H]2CC[C@H]2O)nc(N2Cc3c(cccc3C(F)(F)F)C2=O)c1 [Example 689b]"
readouttype = "fold induction at 1 µM"
result = "< 0.05"

[[record]]
compound = "C[C@H](Cc1nncn1C)c1cc(N[C@@H]2CC[C@@H]2O)nc(N2Cc3c(cccc3C(F)(F)F)C2=O)c1 [Example 689a]"
readouttype = "fold induction at 1 µM"
result = "< 0.05"

[[record]]
compound = "CC(c1cc2c(c(C3CC3)n1)CN(c1cccc(C3(Cc4nncn4C)COC3)c1)C2=O)N1CC2(CC2)C1 (stereo not drawn)"
readouttype = "fold induction at 1 µM"
result = "< 0.05"

[[record]]
compound = "Cc1cc2c(c(C3CC3)n1)CN(c1cccc(C3(Cc4nncn4C)COC3)c1)C2=O"
readouttype = "fold induction at 1 µM"
result = "0.051 to 0.1"

[[record]]
compound = "Cn1cnnc1CC1(c2cccc(N3Cc4c(cc(CN5CCCc6c5cnn6C)cc4C(F)(F)F)C3=O)c2)COC1"
readouttype = "fold induction at 1 µM"
result = "> 0.201"

[[record]]
compound = "Cn1cnnc1CC1(c2cccc(NC(=O)c3cc(CN4CCCCC4)nc(C4CC4)n3)c2)COC1"
readouttype = "fold induction at 1 µM"
result = "> 0.201"

[[record]]
compound = "Cn1cnnc1CC1(c2cccc(N3Cc4c(cc(C5=CCCOC5)cc4C(F)(F)F)C3=O)c2)COC1"
readouttype = "fold induction at 1 µM"
result = "0.101 to 0.15"

[[record]]
compound = "Cn1cnnc1CC1(c2cccc(N3Cc4c(cc(N5CCNC6(CC6)C5)cc4C(F)(F)F)C3=O)c2)COC1"
readouttype = "fold induction at 1 µM"
result = "0.101 to 0.15"

[[record]]
compound = "Cn1cnnc1CC1(c2cccc(N3Cc4c(cc(N5CCC(C(F)F)C5)cc4C(F)(F)F)C3=O)c2)COC1 (stereo not drawn)"
readouttype = "fold induction at 1 µM"
result = "< 0.05"

